Compiled record: Ki values for Metabotropic glutamate receptor 1 (Rattus norvegicus) across several sources.
assay endpoint: Ki

{"smiles data": "O=S(=O)(c1ccc(F)c(F)c1)c1cnc2c(F)cccc2c1-c1ccccc1F", "assay endpoint": "Ki", "result": "> 500 nM"}
{"smiles data": "O=S(=O)(c1ccc(F)c(Cl)c1)c1cnc2cc(F)ccc2c1-c1ccccc1F", "assay endpoint": "Ki", "result": "200 to 500 nM"}
{"smiles data": "COc1cccc(-c2c(S(=O)(=O)c3ccc(OC)c(Cl)c3)cnc3cc(F)ccc23)c1", "assay endpoint": "Ki", "result": "> 500 nM"}
{"smiles data": "COc1ccc(S(=O)(=O)c2cnc3ccc(F)cc3c2-c2ccc(Cl)cc2)cc1", "assay endpoint": "Ki", "result": "> 500 nM"}
{"smiles data": "O=C(NCc1ccc(F)cc1)c1sc2ncccc2c1-c1ccc(F)cc1", "assay endpoint": "Ki", "result": "< 500 nM"}
{"smiles data": "O=S(=O)(c1cc(F)cc(F)c1)c1cnc2c(F)cccc2c1-c1cccc(Cl)c1", "assay endpoint": "Ki", "result": "200 to 500 nM"}
{"smiles data": "N#Cc1cccc(S(=O)(=O)c2sc3nc(F)ccc3c2-c2ccc(F)cc2)c1", "assay endpoint": "Ki", "result": "> 1500 nM"}
{"smiles data": "O=S(=O)(c1ccc(F)c(Cl)c1)c1cnc2c(F)c(Cl)ccc2c1-c1ccc(F)cc1", "assay endpoint": "Ki", "result": "> 500 nM"}

* * *

Compiled record: pKi values for Metabotropic glutamate receptor 1 (Rattus norvegicus, UniProt P23385) across several sources.
pKi: −log10 of the molar value.
assay endpoint: pKi

{"smiles data": "COc1cccc(-c2c(S(=O)(=O)c3cc(Cl)cc(Cl)c3)cnc3ccc(F)cc23)c1", "result": "< 6.30"}
{"smiles data": "N#Cc1cc(F)cc(S(=O)(=O)c2cnc3cc(Cl)ccc3c2-c2ccc(Cl)cc2)c1", "result": "< 6.30"}
{"smiles data": "N#Cc1cccc(S(=O)(=O)c2cnc3c(F)cccc3c2-c2cccc(F)c2)c1", "result": "< 6.30"}
{"smiles data": "O=S(=O)(c1cc(Cl)cc(Cl)c1)c1cnc2cc(F)ccc2c1-c1ccc(F)c(F)c1", "result": "< 6.30"}
{"smiles data": "Cc1nc(C)c(S(=O)(=O)c2sc3ncccc3c2-c2ccc(Cl)cc2)s1", "result": "< 5.82"}
{"smiles data": "O=C(Cc1ccc(F)c(F)c1)c1sc2ncccc2c1-c1ccc(Cl)cc1", "result": "> 6.30"}
{"smiles data": "O=S(=O)(c1cccc(F)c1)c1cnc2cc(F)ccc2c1-c1ccc(Cl)cc1", "result": "< 6.30"}
{"smiles data": "O=S(=O)(c1cc(F)cc(F)c1)c1cnc2cc(Cl)ccc2c1-c1cccc(F)c1", "result": "< 6.30"}
{"smiles data": "O=S(=O)(c1ccc(F)c(F)c1)c1cnc2c(F)cccc2c1-c1ccc(Cl)cc1", "result": "6.30 to 6.70"}
{"smiles data": "Cc1ccc(S(=O)(=O)c2cnc3c(F)cccc3c2-c2ccc(Cl)cc2)cc1F", "result": "< 6.30"}
{"smiles data": "Cc1ccc(S(=O)(=O)c2cnc3cc(F)ccc3c2-c2ccc(F)cc2)cc1C", "result": "< 6.30"}
{"smiles data": "O=S(=O)(c1ccc(F)cc1)c1cnc2c(F)cccc2c1-c1ccc(Cl)cc1", "result": "6.30 to 6.70"}
{"smiles data": "N#Cc1cc(S(=O)(=O)c2cnc3ccccc3c2-c2cccc(Cl)c2)ccc1F", "result": "< 6.30"}
{"smiles data": "Cc1ccc(S(=O)(=O)c2cnc3cc(F)ccc3c2-c2cccc(Cl)c2)cc1C", "result": "< 6.30"}
{"smiles data": "O=C(Cc1ccc(F)cc1)c1sc2ncccc2c1-c1ccc(Cl)cc1", "result": "> 6.30"}
{"smiles data": "N#Cc1cc(F)cc(S(=O)(=O)c2sc3nc(F)ccc3c2-c2ccc(Cl)cc2)c1", "result": "< 5.82"}
{"smiles data": "O=S(=O)(c1cccs1)c1sc2ncccc2c1-c1ccc(Cl)cc1", "result": "< 5.82"}
{"smiles data": "COc1cccc(-c2c(S(=O)(=O)c3cccc(C#N)c3)cnc3cc(F)ccc23)c1", "result": "< 6.30"}
{"smiles data": "O=S(=O)(c1ccc(Cl)cc1)c1cnc2c(Cl)cccc2c1-c1ccc(Cl)cc1", "result": "< 6.30"}
{"smiles data": "O=S(=O)(c1ccc(F)c(Cl)c1)c1cnc2cc(Cl)ccc2c1-c1ccc(F)cc1", "result": "< 6.30"}
{"smiles data": "O=S(=O)(c1ccccc1)c1sc2ncccc2c1-c1ccc(Cl)cc1", "result": "< 5.82"}
{"smiles data": "COc1ccc(-c2c(S(=O)(=O)c3ccc(C)c(C)c3)cnc3ccc(F)cc23)cc1", "result": "< 6.30"}
{"smiles data": "COc1cccc(-c2c(S(=O)(=O)c3cc(Cl)cc(Cl)c3)cnc3c(F)cccc23)c1", "result": "< 6.30"}
{"smiles data": "COc1ccc(S(=O)(=O)c2cnc3ccc(F)cc3c2-c2ccc(Cl)cc2)cc1Cl", "result": "< 6.30"}
{"smiles data": "Cc1ccc(S(=O)(=O)c2cnc3cc(F)ccc3c2-c2ccc(F)cc2)cc1F", "result": "< 6.30"}
{"smiles data": "O=S(=O)(c1cc(Cl)cc(Cl)c1)c1cnc2c(F)cccc2c1-c1cccc(F)c1", "result": "< 6.30"}
{"smiles data": "Nc1ccc2c(-c3cccc(F)c3)c(S(=O)(=O)c3ccc(F)c(F)c3)cnc2c1", "result": "6.30 to 6.70"}
{"smiles data": "O=S(=O)(c1ccc(Cl)s1)c1cnc2cc(Cl)ccc2c1-c1ccc(F)cc1", "result": "< 6.30"}
{"smiles data": "O=S(=O)(c1ccc(F)cc1)c1cnc2cc(Cl)ccc2c1-c1ccc(F)cc1", "result": "< 6.30"}
{"smiles data": "Cc1ccc(S(=O)(=O)c2cnc3cc(F)ccc3c2-c2cccc(F)c2)cc1F", "result": "< 6.30"}
{"smiles data": "O=S(=O)(c1ccc(F)c(Cl)c1)c1cnc2cc(Cl)ccc2c1-c1cc(F)cc(F)c1", "result": "> 6.70"}
{"smiles data": "N#Cc1cccc(S(=O)(=O)c2sc3ncccc3c2-c2cccc(Cl)c2)c1", "result": "> 6.30"}
{"smiles data": "N#Cc1cccc(S(=O)(=O)c2cnc3c(F)cccc3c2-c2ccc(Cl)cc2)c1", "result": "< 6.30"}
{"smiles data": "O=S(=O)(c1cc(F)cc(F)c1)c1cnc2cc(F)ccc2c1-c1ccc(F)cc1", "result": "< 6.30"}

* * *

Compiled record: pKi values for Metabotropic glutamate receptor 1 (Rattus norvegicus) across several sources.
pKi: −log10 of the molar value.

{"smiles data": "O=S(=O)(c1ccc(F)c(F)c1)c1cnc2c(F)cccc2c1-c1ccc(F)cc1", "pKi": "> 6.70"}
{"smiles data": "COc1cccc(-c2c(S(=O)(=O)c3cc(Cl)cc(Cl)c3)cnc3cc(F)ccc23)c1", "pKi": "< 6.30"}
{"smiles data": "O=S(=O)(c1ccc(F)c(Cl)c1)c1cnc2cc(F)ccc2c1-c1cccc(Cl)c1", "pKi": "6.30 to 6.70"}
{"smiles data": "N#Cc1cccc(S(=O)(=O)c2cnc3cc(Cl)ccc3c2-c2ccc(F)cc2)c1", "pKi": "6.30 to 6.70"}
{"smiles data": "N#Cc1cccc(S(=O)(=O)c2sc3ncccc3c2-c2cccc(F)c2)c1", "pKi": "> 6.30"}
{"smiles data": "O=C(CCc1ccoc1)c1sc2ncccc2c1-c1ccc(F)cc1", "pKi": "5.82 to 6.30"}
{"smiles data": "O=S(=O)(c1ccc(F)c(F)c1)c1cnc2cc(F)ccc2c1-c1cccc(Cl)c1", "pKi": "6.30 to 6.70"}
{"smiles data": "N#Cc1cc(S(=O)(=O)c2cnc3cc(Cl)ccc3c2-c2cccc(F)c2)ccc1F", "pKi": "> 6.70"}
{"smiles data": "O=S(=O)(c1cc(F)cc(F)c1)c1cnc2cc(Cl)ccc2c1-c1ccc(F)cc1", "pKi": "< 6.30"}
{"smiles data": "N#Cc1ccc2c(-c3ccccc3F)c(S(=O)(=O)c3ccc(F)c(Cl)c3)cnc2c1", "pKi": "< 6.30"}
{"smiles data": "Cc1ccc(-c2c(S(=O)(=O)c3ccc(Cl)cc3)sc3ncccc23)cc1", "pKi": "< 5.82"}
{"smiles data": "O=S(=O)(c1ccc(F)c(Cl)c1)c1cnc2ccc(F)cc2c1-c1ccc(Cl)cc1", "pKi": "6.30 to 6.70"}
{"smiles data": "O=S(=O)(c1cc(F)cc(F)c1)c1cnc2cc(F)c(Cl)cc2c1-c1ccc(Cl)cc1", "pKi": "< 6.30"}
{"smiles data": "CC1CCN(c2c(S(=O)(=O)c3cccc(C#N)c3)sc3ncccc23)CC1", "pKi": "> 6.30"}
{"smiles data": "COc1ccc(-c2c(S(=O)(=O)c3ccc(C)c(F)c3)cnc3ccc(F)cc23)cc1", "pKi": "< 6.30"}
{"smiles data": "O=S(=O)(c1cccc(F)c1)c1cnc2ccc(F)cc2c1-c1ccc(Cl)cc1", "pKi": "< 6.30"}
{"smiles data": "COc1cccc(-c2c(S(=O)(=O)c3ccc(C)c(F)c3)cnc3ccc(F)cc23)c1", "pKi": "< 6.30"}
{"smiles data": "O=S(=O)(c1ccc(F)cc1)c1cnc2ccc(F)cc2c1-c1ccc(Cl)cc1", "pKi": "< 6.30"}
{"smiles data": "O=S(=O)(c1ccc(F)c(F)c1)c1cnc2c(F)cccc2c1-c1ccc(F)c(F)c1", "pKi": "< 6.30"}
{"smiles data": "N#Cc1cccc(S(=O)(=O)c2sc3ncccc3c2-c2ccccc2Cl)c1", "pKi": "> 6.30"}
{"smiles data": "O=S(=O)(c1ccc(F)c(F)c1)c1cnc2ccc(F)cc2c1-c1ccc(F)cc1", "pKi": "6.30 to 6.70"}
{"smiles data": "O=S(=O)(c1cc(F)cc(F)c1)c1cnc2cc(F)ccc2c1-c1cccc(F)c1", "pKi": "6.30 to 6.70"}
{"smiles data": "COc1ccc(-c2c(S(=O)(=O)c3ccc(C)c(C)c3)cnc3cc(F)ccc23)cc1", "pKi": "< 6.30"}
{"smiles data": "COc1cccc(-c2c(S(=O)(=O)c3cccc(Cl)c3)cnc3ccc(F)cc23)c1", "pKi": "< 6.30"}
{"smiles data": "COc1cccc(-c2c(S(=O)(=O)c3ccc(C)c(C)c3)cnc3cc(F)ccc23)c1", "pKi": "< 6.30"}
{"smiles data": "O=S(=O)(c1cc(F)cc(F)c1)c1cnc2c(F)cccc2c1-c1cccc(F)c1", "pKi": "< 6.30"}
{"smiles data": "CCOC(=O)CC(=O)c1sc2ncccc2c1-c1ccc(Cl)cc1", "pKi": "> 6.30"}
{"smiles data": "N#Cc1cc(S(=O)(=O)c2cnc3cc(Cl)ccc3c2-c2ccc(Cl)cc2)ccc1F", "pKi": "6.30 to 6.70"}
{"smiles data": "N#Cc1cc(F)cc(S(=O)(=O)c2cnc3cc(Cl)ccc3c2-c2cccc(F)c2)c1", "pKi": "6.30 to 6.70"}
{"smiles data": "O=S(=O)(c1ccc(F)c(Cl)c1)c1cnc2ccc(F)cc2c1-c1ccc(F)cc1", "pKi": "6.30 to 6.70"}
{"smiles data": "N#Cc1cc(F)cc(S(=O)(=O)c2cnc3cc(F)ccc3c2-c2cccc(Cl)c2)c1", "pKi": "< 6.30"}
{"smiles data": "N#Cc1cccc(S(=O)(=O)c2cnc3cc(F)ccc3c2-c2cccc(F)c2)c1", "pKi": "6.30 to 6.70"}
{"smiles data": "O=S(=O)(c1cc(F)cc(F)c1)c1cnc2ccc(F)cc2c1-c1ccc(Cl)cc1", "pKi": "< 6.30"}
